Molecular target: human orexin type 2 receptor (Homo sapiens)
Construct: expressed in transfected cells
Sequence (O43614 1-444): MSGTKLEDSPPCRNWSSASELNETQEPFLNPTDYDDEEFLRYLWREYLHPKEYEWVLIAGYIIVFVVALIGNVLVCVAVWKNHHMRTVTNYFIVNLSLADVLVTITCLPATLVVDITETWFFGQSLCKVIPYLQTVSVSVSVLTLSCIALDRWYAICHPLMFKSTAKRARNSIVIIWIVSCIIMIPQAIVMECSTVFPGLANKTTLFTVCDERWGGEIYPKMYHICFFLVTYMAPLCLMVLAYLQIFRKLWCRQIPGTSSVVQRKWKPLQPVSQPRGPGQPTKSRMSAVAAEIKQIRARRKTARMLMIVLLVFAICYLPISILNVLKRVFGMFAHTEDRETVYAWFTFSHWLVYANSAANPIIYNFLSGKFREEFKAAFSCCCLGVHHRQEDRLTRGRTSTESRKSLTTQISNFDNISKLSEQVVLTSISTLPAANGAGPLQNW
Experiment: Measurement of orexin type 2 receptor agonist activity (calcium fluorescence, Fluo-4 AM, FDSS)
Format: cell-based
Details: test compound 3 μM; CHO cells expressing human OX2 receptor; DMSO = 0%, orexin A (human) = 100%
Parameter OX2R agonist activity (3 μM, %): see the listing below.
Hi! Could you send only the number? It should be in %, unit omitted.

{"columns": ["COMPOUND", "MEASURED_TARGET", "UNIT_OF_MEASURE", "OX2R agonist activity (3 μM, %)"],
 "data": [
  ["O=C([C@@H]1C[C@@]1(F)c1ccc(F)cc1-c1c(F)cccc1F)N1C[C@@H](F)[C@H]1CNS(=O)(=O)C(F)(F)F", "human orexin type 2 receptor (Homo sapiens)", "%", 94],
  ["CNS(=O)(=O)NC[C@@H]1CCN1C(=O)[C@@H]1C[C@H]1c1ccccc1-c1c(F)cccc1F", "human orexin type 2 receptor (Homo sapiens)", "%", 103],
  ["CS(=O)(=O)N[C@H]1CCCN(C(=O)C2C(c3ccccc3-c3c(F)cccc3F)C2(F)F)C1 (stereo partly shown)", "human orexin type 2 receptor (Homo sapiens)", "%", 91],
  ["CC(C)NS(=O)(=O)NC[C@@H]1[C@H](F)CN1C(=O)[C@@H]1C[C@@]1(F)c1ccc(F)cc1-c1c(F)cccc1F", "human orexin type 2 receptor (Homo sapiens)", "%", 72],
  ["CS(=O)(=O)NCC1CN(C(=O)C2CC2c2ccccc2-c2c(F)cccc2F)CC1(F)F (racemic)", "human orexin type 2 receptor (Homo sapiens)", "%", 63]
]}

Report OX2R agonist activity (3 μM, %), nothing else, for this compound: CS(=O)(=O)N[C@@H]1CN(C(=O)[C@@H]2C[C@H]2c2ccccc2-c2c(F)cccc2F)CC[C@H]1O
100

Report OX2R agonist activity (3 μM, %), nothing else, for this compound: CS(=O)(=O)N[C@H]1CCCN(C(=O)C2CC2c2cccc(F)c2-c2c(F)cccc2F)CC1 (mixture of isomers)
100

Report OX2R agonist activity (3 μM, %), nothing else, for this compound: CN(C)S(=O)(=O)NC1CCCN(C(=O)C2CC2c2ccccc2-c2c(F)cccc2F)C1 (racemic)
104

Attribution: patent US20250250230A1
